system: Engineered strains of E. coli; assay type: cell-based; details: after solvent exposure, vs positive control
reported property: change in expression of gene lhgO
Give bare numbers.

Solved cases (2 shown):
[
  {
    "structure smiles": "CCCCCC",
    "change in expression of gene lhgO": "−1.20"
  },
  {
    "structure smiles": "CC(C)=O",
    "change in expression of gene lhgO": 1.82
  }
]

Next molecule, change in expression of gene lhgO to be filled in.
query: Please look up its change in expression of gene lhgO: CCC(C)CC
result: 1.21
